Catalogue of variants with associated pKd
B1: scFv; the commonest letter at each place (parent)
chain 1: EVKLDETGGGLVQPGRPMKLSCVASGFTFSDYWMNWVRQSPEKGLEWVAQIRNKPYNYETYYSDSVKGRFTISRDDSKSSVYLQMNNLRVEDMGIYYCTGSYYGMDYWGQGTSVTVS
chain 2: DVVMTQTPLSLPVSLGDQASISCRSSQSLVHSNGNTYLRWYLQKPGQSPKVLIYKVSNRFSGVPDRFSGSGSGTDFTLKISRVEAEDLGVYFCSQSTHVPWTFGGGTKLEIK

variants of: B1; test: Kd (Tite-Seq); conditions: with fluorescein; format: scFv 4-4-20, heavy + light
pKd: −log10 of the molar value.

| mutation annotation | pKd |
| --- | --- |
| chain 1 G100Q D106I | ≤ 5.00 |

// sample chain 1 F29G W33K , its pKd was ≤ 5.00

// sample chain 1 F29I N35P , its pKd was ≤ 5.00

// sample chain 1 S101L Y102A , its pKd was ≤ 5.00

// sample chain 1 M105P G109I , its pKd was ≤ 5.00

// sample chain 1 G104M M105R , its pKd was ≤ 5.00

// sample chain 1 T28E D31K , its pKd was 8.74

// sample chain 1 S30F M34C , its pKd was 5.38

// sample chain 1 S30P N35G , its pKd was 8.33

// sample chain 1 W108Q G109E , its pKd was ≤ 5.00

// sample chain 1 G100T D106V , its pKd was ≤ 5.00
